Hello, the source for this data is the supplement of paper PMC10065799, in case you need it.

- Measured on: Grb2 SH2 (UniProt P62993)
- Sequence (P62993 whole entry, looked up, the tested form may be a part): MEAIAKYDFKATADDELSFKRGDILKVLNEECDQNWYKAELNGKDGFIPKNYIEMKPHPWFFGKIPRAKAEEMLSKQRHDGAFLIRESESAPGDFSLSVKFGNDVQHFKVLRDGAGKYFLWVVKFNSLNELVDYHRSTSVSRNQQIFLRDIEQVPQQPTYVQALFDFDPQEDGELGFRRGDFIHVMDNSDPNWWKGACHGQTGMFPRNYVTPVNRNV
- Experimental details: SH2 binding enrichment of the phosphorylated peptide, bacterial display (enrichment ratio); higher = better substrate or ligand; peptides without Tyr show the background;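 also: peptide library displayed on the E. coli surface as eCPX fusions, selected cells deep-sequenced, score is each peptide's frequency after selection divided by its frequency in the input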

| Ordered residues | Measured on | SH2 binding enrichment |
| --- | --- | --- |
| SVVVPYEPPED [TP53_Y220_V225D] | Grb2 SH2 (UniProt P62993) | 0.874 |
| AVEDQYFCVDC [FHL1_Y207_YF] | Grb2 SH2 (UniProt P62993) | 0.849 |
| KFLENYLNRLL [PLD2_Y169_YF] | Grb2 SH2 (UniProt P62993) | 1.67 |
| PTFEHYANSTQ [SLC12A3_Y70_YF] | Grb2 SH2 (UniProt P62993) | 1.43 |
| NRSSLYLVAGP [KIAA1614_Y1083] | Grb2 SH2 (UniProt P62993) | 0.756 |
| SHSMRYFDTAV [HLA-C_Y31] | Grb2 SH2 (UniProt P62993) | 0.716 |
| LHQSTYQRYDV [SLC7A14_Y693] | Grb2 SH2 (UniProt P62993) | 0.772 |
| RLPNGYGLAYR [DLK1_Y262_S260N] | Grb2 SH2 (UniProt P62993) | 1.15 |
| IFHLSYHHNCE [PDE6B_Y227_L228H_YF] | Grb2 SH2 (UniProt P62993) | 1.14 |
| FCRITYDIFPF [INTS13_Y67_M66T_YF] | Grb2 SH2 (UniProt P62993) | 1.03 |
| QSSALYEDRYL [ASS1_Y83] | Grb2 SH2 (UniProt P62993) | 0.711 |
| KIVQDYLEKFF [MMP8_Y36_T32I_YF] | Grb2 SH2 (UniProt P62993) | 1.08 |
| AVAFLYFKSIG [ADGRL4_Y301_V300L_YF] | Grb2 SH2 (UniProt P62993) | 0.806 |
| SGETEYNPTEA [NBEAL2_Y2748] | Grb2 SH2 (UniProt P62993) | 0.803 |
| RLEPVYFVAPA [LAMC2_Y250_D247E] | Grb2 SH2 (UniProt P62993) | 0.798 |
| PPLMLYNPTTF [EGFR_Y270_YF] | Grb2 SH2 (UniProt P62993) | 0.931 |
| DFPIGYPSFLA [TBCK_Y153_YF] | Grb2 SH2 (UniProt P62993) | 0.635 |
| FADIAYNFRHR [PAH_Y166_G171R_YF] | Grb2 SH2 (UniProt P62993) | 0.888 |
